Cited source: patent US11254663B2

Biological target: FXR (Homo sapiens (Human))
Sequence (Q96RI1 262-486): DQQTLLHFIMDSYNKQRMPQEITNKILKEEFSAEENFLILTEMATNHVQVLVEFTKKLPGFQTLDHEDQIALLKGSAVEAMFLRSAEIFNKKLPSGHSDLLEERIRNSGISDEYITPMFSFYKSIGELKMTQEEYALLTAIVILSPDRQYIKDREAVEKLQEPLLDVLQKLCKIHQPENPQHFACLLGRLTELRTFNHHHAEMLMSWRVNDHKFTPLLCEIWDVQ
Assay: FXR EC50 (FXR agonist potency reported with each Example)
Format: cell-based
# pEC50 listing for each entry below
Scale note: pEC50 = -log10(concentration in M).

Return value of pEC50 for input CC(C)(C)c1noc(C23CCC(CN(C(=O)C45CC(F)(C4)C5)c4cccc(-c5nc(C6CC6)no5)c4)(CC2)CC3)n1 [Example 88] , no commentary.
7.07

Return value of pEC50 for input CC1(c2nc(C34CCC(CN(C(=O)C56CC(F)(C5)C6)c5cccc(-c6nnc(C7CC7)o6)c5)(CC3)CC4)no2)CC1 [Example 154] , no commentary.
7.57

Return value of pEC50 for input CCOc1cc(-c2cccc(N(CC34CCC(c5nc(C6CC6)no5)(CC3)CC4)C(=O)C34CC(F)(C3)C4)c2)ccn1 [Example 226] , no commentary.
6.66

Return value of pEC50 for input O=C(C1CCC1)N(CC12CCC(c3nc(CC4CC4)no3)(CC1)CC2)c1cccc(-c2nc(C3CC3)no2)c1 [Example 71] , no commentary.
6.39

Return value of pEC50 for input CC(C)(C)c1nc(C23CCC(CN(C(=O)C45CC(F)(C4)C5)c4cccc(-c5noc(C6(C)CC6)n5)c4)(CC2)CC3)no1 [Example 177] , no commentary.
7.48

Return value of pEC50 for input CC1(c2nc(C34CCC(CN(C(=O)C56CC(F)(C5)C6)c5cccc(-c6nc(C7CC7)no6)c5)(CC3)CC4)no2)COC1 [Example 122] , no commentary.
7.55

Return value of pEC50 for input O=C(N(CC12CCC(c3nc(C4CC4)no3)(CC1)CC2)c1cccc(-c2cnn(CC(F)F)c2)c1)C12CC(F)(C1)C2 [Example 161] , no commentary.
7.02

Return value of pEC50 for input CCc1noc(-c2cccc(N(CC34CCC(c5nc(C)no5)(CC3)CC4)C(=O)C34CC(F)(C3)C4)c2)n1 [Example 3] , no commentary.
6.46

Return value of pEC50 for input CCOc1ncc(-c2cccc(N(CC34CCC(c5nc(C6CC6)no5)(CC3)CC4)C(=O)C34CC(F)(C3)C4)c2)o1 [Example 7] , no commentary.
7.66

Return value of pEC50 for input O=C(C1CC(C(F)F)C1)N(CC12CCC(c3nc(C4CC4)no3)(CC1)CC2)c1cccc(-c2cnc(C3CC3)o2)c1 (centres unmarked) [Example 24] , no commentary.
6.55

Return value of pEC50 for input CC(C)(O)c1coc(-c2cccc(N(CC34CCC(c5nc(C6CC6)no5)(CC3)CC4)C(=O)C3CCC(F)(F)C3)c2)n1 (centres unmarked) [Example 18] , no commentary.
6.81

Return value of pEC50 for input N#CC1(c2ccc(C34CCC(CN(C(=O)C56CC(F)(C5)C6)c5cccc(-c6nc(C7CC7)no6)c5)(CC3)CO4)cc2)CC1 [Example 143] , no commentary.
7.05

Return value of pEC50 for input O=C(C1CCC(F)(F)C1)N(CC12CCC(c3nc(C4CC4)no3)(CC1)CC2)c1cccc(-c2nc(C(F)F)co2)c1 (centres unmarked) [Example 44] , no commentary.
6.19
